System: RXF-631 renal
experiment-description: NCI tumour cell line growth inhibition, 48 h
So I've got a bunch of molecules here, and I need their TGI values.

# count of solved cases: 3
INSERT INTO measurements (structure_smiles_string, reported_result) VALUES
  ('CCOc1ccc(/C=N\N2C(=O)c3ccccc3C2=O)cc1', '> 100 µM'),
  ('Cc1ccc(S(=O)(=O)Nc2cccc(C)c2C)cc1', '> 100 µM'),
  ('C=C(CS(=O)(=O)c1ccccc1)C(=O)OCC', '16.8 µM');

Let us examine a further case.
Fill in TGI for Cc1ccc(NC(=O)CC(=O)n2nc(-c3ccccc3)c(N=Nc3ccccc3C(=O)O)c2-c2ccccc2)cc1 tested with RXF-631 renal. > 100 µM

* * *

So I've got a bunch of molecules here, and I need their GI50 values.
Tested on: MOLT-4 leukemia
experiment-description: NCI tumour cell line growth inhibition, 48 h

INSERT INTO assay_data (molecule, tested_system, reported_result) VALUES
  ('COc1ccc(C2=NNC(c3cc(Cc4ccc(O)c(C5CC(c6ccc(OC)cc6)=NN5)c4)ccc3O)C2)cc1 (stereo not given)', 'MOLT-4 leukemia', '17.8 µM'),
  ('CCCCCCCCCCCCNC(=O)[C@H]1CSC(c2cc(Br)cs2)N1 (stereo not given in full)', 'MOLT-4 leukemia', '0.774 µM'),
  ('Nc1ncnc2c1nc(N)n2C1OC(CO)C(O)C1O (stereo not given)', 'MOLT-4 leukemia', '1.76 µM'),
  ('CCN1CCN(CC(=O)Nc2nc3ccc(NCc4ccc(C)cc4)cc3s2)CC1', 'MOLT-4 leukemia', '1.59 µM');

Let us examine a further case.
Specify reported GI50 for the molecule shown: CC(=O)NC1CCCN(O)C(=O)/C=C(/C)CCOC(=O)C(NC(C)=O)CCCN(O)C(=O)/C=C(/C)CCOC(=O)C(NC(C)=O)CCCN(O)C(=O)/C=C(/C)CCOC1=O.[Fe] (stereo not given) > 100 µM

* * *

Test system: OVCAR-8 ovarian
experiment-description: NCI tumour cell line growth inhibition, 48 h
readout-kind: GI50

# count of solved cases: 3
INSERT INTO assay_data (compound, reported_result) VALUES
  ('Cc1cc(NS(=O)(=O)c2ccc(NC(=O)COc3ccc(-c4cc5ccccc5[nH]4)cc3)cc2)no1', '2.01 µM'),
  ('CCN(CC)CCNC(=O)c1cc(Cl)c(N)cc1OC', '28.4 µM'),
  ('O=S1CCN(Cc2ccc(-c3ccc4ncnc(Nc5ccc(OCc6ccccc6)c(F)c5)c4c3)o2)CC1', '11.4 µM');

Give one value of GI50 per listed compound.
1. O=C(CCCCCNC1=CC(=O)c2ccccc2C1=O)NCCC[Te]c1ccccc1
2. CCCCCCCCCCCCNC(=O)[C@H]1CSC(c2cc(Br)cs2)N1 (stereo partly specified)
3. O=c1[nH]cc(CO)c(=O)[nH]1
4. CS(=O)/C(C#N)=C\C=C\c1cccc(Cl)c1 (stereo unspecified)

0.446 µM
1.58 µM
> 100 µM
3.78 µM

* * *

System: CAKI-1 renal
experiment-description: NCI tumour cell line growth inhibition, 48 h; in the data active means GI50 below about 0.43 µM; inactive means the rest
Response enum: active, inactive

Answered examples (3):
INSERT INTO results (compound, answer_label) VALUES
  ('O=S1CCN(Cc2ccc(-c3ccc4ncnc(Nc5ccc(OCc6ccccc6)c(F)c5)c4c3)o2)CC1', 'active'),
  ('COc1ccccc1N(C(C)=O)C1=C(Cl)C(=O)c2ccccc2C1=O', 'inactive'),
  ('O=C(CCCCCNC1=CC(=O)c2ccccc2C1=O)NCCC[Te]c1ccccc1', 'inactive');

Look up the recorded call for Cc1ccc(C2NC(=S)N3C(c4ccc(C)cc4)NC(=S)N23)cc1 (stereo unspecified) in this test. inactive

Look up the recorded call for Cc1cn(C2CC(N=[N+]=[N-])C(CO)O2)c(=O)[nH]c1=O (stereo unspecified) in this test. inactive

Look up the recorded call for O=Cc1c[nH]c2ccc(-c3csc4ccccc34)cc12 in this test. inactive
